Data credit: paper PMC10850913

TEST_DESCRIPTION: Tissue distribution
Type: in vivo
EXPERIMENTAL_SETUP: male, albino Wistar, rat, spleen, intravenous, 15 mg/kg; rats, 8 h after administration; read-out: Concentration in Spleen
PROPERTY_NAME: concentration at 8 h (ng/mL)

> print(dat)
                                   compound         property.name    uom  number
1  CNC(=O)c1ccc(N2C(=S)N(c3ccc(C#N)c(C(F)(F)F)c3)C(=O)C2(C)C)cc1F [ENZ, Enzalutamide]  concentration at 8 h  ng/mL     0.3

###

TEST_DESCRIPTION: Tissue distribution
Type: in vivo
EXPERIMENTAL_SETUP: male, albino Wistar, rat, liver, intravenous, 15 mg/kg; rats, 8 h after administration; read-out: Concentration in Liver
PROPERTY_NAME: concentration at 8 h (ng/mL)

> print(dat)
                                   compound         property.name  number
1  CNC(=O)c1ccc(N2C(=S)N(c3ccc(C#N)c(C(F)(F)F)c3)C(=O)C2(C)C)cc1F [ENZ, Enzalutamide]  concentration at 8 h     1.2

###

TEST_DESCRIPTION: Tissue distribution
Format: in vivo
EXPERIMENTAL_SETUP: male, albino Wistar, rat, heart, intravenous, 15 mg/kg; rats, 8 h after administration; read-out: Concentration in Heart
Description: To assess the distribution and concentration of a medication within the body following delivery, tissue distribution studies were conducted. […] The medications evaluated for tissue distribution were ENZ and the formulation ENZ-PLGA-PSAR-TPGS NPs. […] Subsequently, the samples were analyzed using RP-UHPLC (Dionex Ultimate, 3000) to determine the distribution and concentration of the medications in various tissues.
PROPERTY_NAME: concentration at 8 h (ng/mL)

> print(dat)
                                   compound  number
1  CNC(=O)c1ccc(N2C(=S)N(c3ccc(C#N)c(C(F)(F)F)c3)C(=O)C2(C)C)cc1F [ENZ, Enzalutamide]     0.8

###

TEST_DESCRIPTION: Tissue distribution
Type: in vivo
EXPERIMENTAL_SETUP: male, albino Wistar, rat, kidney, intravenous, 15 mg/kg; rats, 8 h after administration; read-out: Concentration in Kidney
Method: To assess the distribution and concentration of a medication within the body following delivery, tissue distribution studies were conducted. […] The medications evaluated for tissue distribution were ENZ and the formulation ENZ-PLGA-PSAR-TPGS NPs. […] Subsequently, the samples were analyzed using RP-UHPLC (Dionex Ultimate, 3000) to determine the distribution and concentration of the medications in various tissues.
PROPERTY_NAME: concentration at 8 h (ng/mL)

> print(dat)
                                   compound  number
1  CNC(=O)c1ccc(N2C(=S)N(c3ccc(C#N)c(C(F)(F)F)c3)C(=O)C2(C)C)cc1F [ENZ, Enzalutamide]    0.57

###

TEST_DESCRIPTION: Tissue distribution
Format: in vivo
EXPERIMENTAL_SETUP: male, albino Wistar, rat, stomach, intravenous, 15 mg/kg; rats, 8 h after administration; read-out: Concentration in Stomach
PROPERTY_NAME: concentration at 8 h (ng/mL)

> print(dat)
                                   compound         property.name  number
1  CNC(=O)c1ccc(N2C(=S)N(c3ccc(C#N)c(C(F)(F)F)c3)C(=O)C2(C)C)cc1F [ENZ, Enzalutamide]  concentration at 8 h    0.21
